Assay: drug combination growth inhibition, ovarian cancer – cell-based, oncology-focused library, rucaparib conditional, profiling panel (AID 1508598)
Conditions: patient-derived ovarian cancer cells, CellTiter-Glo viability, 144 h; at 0.000305 µM; OCI-C5x cells; with rucaparib 10 µM; stronger effect = lower value; 100% = cells with rucaparib alone
quantity-kind: viability (%)
Answer in %, number only, no unit symbol.

Look over these answered cases.
Cc1cnc(-c2ccccc2C(C)C)nc1NCc1ccc(-n2ccnn2)cc1; 118
Cc1nnc(C(C)C)n1C1CC2CCC(C1)N2CC[C@H](NC(=O)C1CCC(F)(F)CC1)c1ccccc1 (stereo partly specified); 106

What measured viability goes with CC(C)C[C@H](NC(=O)CNC(=O)c1cc(Cl)ccc1Cl)B(O)O ?
111

I have this molecule here, Cc1ccc(C(=O)N(CCCN)[C@@H](c2nc3cc(Cl)ccc3c(=O)n2Cc2ccccc2)C(C)C)cc1 , and I need its recorded viability.
104

Which viability is reported for this molecule? OCCn1cc(-c2cnc3nnn(Cc4ccc5ncccc5c4)c3n2)cn1
111

These entries and their values trace back to PubChem BioAssay.
